The reported measurements were obtained from ChEMBL document CHEMBL1151225.

These records show IC50 for DNA polymerase beta (Homo sapiens).
Form entry: value (µM) — number only.

> print(dat)
                            chemical.string  measured.parameter  unit.label  reported.result
1  C=CC[C@@]12CC(=O)[C@@H](O)[C@@](OC)([C@@H]1O)[C@@H](c1ccc3c(c1)OCO3)[C@@H]2C                IC50          µM             32.4

Q: Look up IC50 with DNA polymerase beta (Homo sapiens) for this compound: C=CC[C@@]12C[C@H](OC)[C@@H](O)[C@@](OC)([C@@H]1O)[C@@H](c1ccc3c(c1)OCO3)[C@@H]2C
Ans: 26.5

Q: Look up IC50 with DNA polymerase beta (Homo sapiens) for this compound: C=CCc1c(OC)cc2c(c1OC)OCO2
Ans: 34.2

Q: Look up IC50 with DNA polymerase beta (Homo sapiens) for this compound: COc1cc2c(c(OC)c1/C=C/CO)OCO2
Ans: 43.5
